As shown below, each of these compounds has a reported melting point value.

{"compound": "Nc1ccc(N)nc1", "melting point / °C": 96}
{"compound": "CC(C)(C)c1cc(C#N)cc(C(C)(C)C)c1O [3,5-di-tert-butyl-4-hydroxybenzonitrile]", "melting point / °C": 142}
{"compound": "CC(C)C1C(=O)NC(=O)NC1=O", "melting point / °C": 215}
{"compound": "CCCCOC(=O)c1ccc(O)cc1 [Butyl 4-hydroxybenzoate]", "melting point / °C": 69}
{"compound": "Cc1ccc([N+](=O)[O-])cc1C [1,2-Dimethyl-4-nitrobenzene]", "melting point / °C": 30.5}
{"compound": "Cc1ccc(CCc2ccc(C)cc2)cc1", "melting point / °C": 78}
{"compound": "N[C@H](CO)Cc1ccccc1", "melting point / °C": 92}
{"compound": "Cc1ccc(O)c(C(=O)O)c1", "melting point / °C": 153}
{"compound": "Oc1ccccc1I", "melting point / °C": 40}
{"compound": "c1ccc2c(c1)Cc1cc3ccccc3cc1-2", "melting point / °C": 210}
{"compound": "CCN(CC)CCNC(=O)c1cc(Cl)c(N)cc1OC [Metoclopramide]", "melting point / °C": 147}
{"compound": "Cc1c(CSC2OCC(O)C(O)C2O)c(C)c(CSC2OCC(O)C(O)C2O)c(C)c1CSC1OCC(O)C(O)C1O (configuration not stated)", "melting point / °C": 209}

----------
{"compound": "CC12CCC(/C(=C/N(Cl)c3ccccc3)C1=O)C2(C)C (centres undefined)", "unit_string": "°C", "melting point": 103}
{"compound": "O=C1CN=C(c2ccccc2Cl)c2cc([N+](=O)[O-])ccc2N1", "unit_string": "°C", "melting point": 238}
{"compound": "OB(O)c1cc(Cl)c(F)cc1F", "unit_string": "°C", "melting point": 220}
{"compound": "CC(CC(=O)O)c1ccc(C(=O)O)cc1 (centres undefined)", "unit_string": "°C", "melting point": 225}

----------
Entries and their measured melting point follow.

{"compound": "N#Cc1cccc(CO)c1 [m-hydroxymethyl_benzonitrile]", "unit_string": "°C", "melting point": 28}
{"compound": "O=C(c1ccncc1)c1ccc(Cl)cc1", "unit_string": "°C", "melting point": 108}
{"compound": "C/C=C\\CC [cis-2-pentene]", "unit_string": "°C", "melting point": -151}
{"compound": "Clc1ncnc2sc3c(c12)CCC3", "unit_string": "°C", "melting point": 105}
{"compound": "NCCCCN [Butane-1,4-diamine]", "unit_string": "°C", "melting point": 27.5}
{"compound": "COC(=O)CCC(C)C1CCC2C3CCC4CC(=O)CCC4(C)C3CCC12C (stereo unspecified) [methyl 3-oxocholan-24-oate]", "unit_string": "°C", "melting point": 117}
{"compound": "O=S(Br)Br [thionyl bromide]", "unit_string": "°C", "melting point": -52}
{"compound": "NC(=O)CN1Cc2ccccc2OC1=O", "unit_string": "°C", "melting point": 203}
{"compound": "N#Cc1ccc[n+]([O-])c1 [3-cyanopyridine 1-oxide]", "unit_string": "°C", "melting point": 177}
{"compound": "OCc1ccccc1O[C@@H]1O[C@H](CO)[C@@H](O)[C@H](O)[C@H]1O [2-(Hydroxymethyl)phenyl beta-D-glucopyranoside]", "unit_string": "°C", "melting point": 199}
{"compound": "C1CCC(C2CCCCC2)CC1 [dicyclohexyl]", "unit_string": "°C", "melting point": 4}
{"compound": "N[C@@H](CO)Cc1ccccc1", "unit_string": "°C", "melting point": 92}
{"compound": "Oc1ccc(Cl)cc1-c1cc[nH]n1", "unit_string": "°C", "melting point": 157}
{"compound": "CS(=O)(=O)Cl [methanesulfonyl chloride]", "unit_string": "°C", "melting point": -33}
{"compound": "CCCCNCC(O)c1ccc(O)cc1 (stereo unspecified)", "unit_string": "°C", "melting point": 124}
{"compound": "Cc1cc(C=O)c(C)n1-c1cc(C(F)(F)F)cc(C(F)(F)F)c1", "unit_string": "°C", "melting point": 95.5}
{"compound": "CCOCC [Diethyl ether]", "unit_string": "°C", "melting point": -116}
{"compound": "OC1CCCCCCCCCCC1", "unit_string": "°C", "melting point": 78}
{"compound": "OC1CC2=C(CCCC2)CC1O (stereo unspecified) [1,2,3,4,5,6,7,8-octahydronaphthalene-2,3-diol]", "unit_string": "°C", "melting point": 121}
{"compound": "Clc1ccc(-c2cc(Cl)c(Cl)cc2Cl)cc1Cl", "unit_string": "°C", "melting point": 110}
{"compound": "NCc1ccccc1 [1-Phenylmethanamine]", "unit_string": "°C", "melting point": -46}

----------
Measured melting point of individual entries

{"molecule": "CCCCC [Pentane]", "melting point [°C]": -130}
{"molecule": "ClCc1cccc(CCl)c1 [m-xylylene dichloride]", "melting point [°C]": 35}
{"molecule": "COC(=O)C(C#N)c1ccccc1[N+](=O)[O-] (stereo not given) [methyl cyano(2-nitrophenyl)acetate]", "melting point [°C]": 88}
{"molecule": "CCBr [bromoethane]", "melting point [°C]": -119}
{"molecule": "O=C(OCc1ccccc1)c1ccc(B(O)O)cc1", "melting point [°C]": 190}
{"molecule": "CC(=O)CC(C)=O", "melting point [°C]": -23}
{"molecule": "CCOC(=O)C1=C(C)N=NC1C (stereo not given) [ethyl 3,5-dimethyl-1H-pyrazole-4-carboxylate]", "melting point [°C]": 119}
{"molecule": "CN1C(=O)CCC(N2C(=O)c3ccccc3C2=O)C1=O (stereo not given) [N-Methylthalidomide]", "melting point [°C]": 159}
{"molecule": "Nc1ccc(Cl)c([N+](=O)[O-])c1", "melting point [°C]": 103}
{"molecule": "CC1(C)OC(=O)C(=Cc2ccc(-c3ccccc3)o2)C(=O)O1", "melting point [°C]": 143}
{"molecule": "C1OCOCO1", "melting point [°C]": 61}
{"molecule": "c1ccc2c(c1)ccc1cc3c(ccc4ccccc43)cc12 [Benzo[k]tetraphene]", "melting point [°C]": 266}
{"molecule": "c1ccc2c(c1)Cc1ccccc1O2", "melting point [°C]": 101}
{"molecule": "O=Cc1coc2ccccc2c1=O", "melting point [°C]": 152}
{"molecule": "CC(=O)c1cccc(O)c1 [3'-hydroxyacetophenone]", "melting point [°C]": 95}
{"molecule": "O=C(O)c1cc(O)ccc1O [2,5-Dihydroxybenzoic acid]", "melting point [°C]": 206}
{"molecule": "COC(=O)c1ccc(N(C)C)cc1 [methyl 4-dimethylaminobenzoate]", "melting point [°C]": 100}
{"molecule": "Cc1ccc(C(C)C)cc2c(C)ccc1-2", "melting point [°C]": 32}
{"molecule": "ClC1=C(Cl)C2(Cl)C3C4CC(C5OC45)C3C1(Cl)C2(Cl)Cl (stereo not given) [Dieldrin]", "melting point [°C]": 175}
{"molecule": "OCc1ccccc1Cl", "melting point [°C]": 70}

----------
Below, each of the molecules is paired with its reported melting point value.

{"molecule": "OC1CCCCCCC1", "melting point (°C)": 15}
{"molecule": "COCc1ccccc1", "melting point (°C)": -52}
{"molecule": "O/N=C(\\Cc1ccccc1)c1ccc2ccccc2c1 [(1E)-N-hydroxy-1-(naphthalen-2-yl)-2-phenylethanimine]", "melting point (°C)": 129}

----------
{"compound": "C=CC(=O)OCC [ethyl_acrylate]", "melting point, °C": -71}
{"compound": "Cl\\C1=C(/Cl)C2(Cl)C3C4CC(C3C1(Cl)C2(Cl)Cl)C5OC45 (stereo not drawn) [endrin]", "melting point, °C": 210}
{"compound": "CC(=O)O[Si](C)(OC(C)=O)OC(C)=O", "melting point, °C": 43}

----------
quantity_measured: melting point (°C)

{"molecule": "COC(=O)C1(C)C(C)=Nc2ccccc21 (configuration not stated) [methyl 2,3-dimethyl-3H-indole-3-carboxylate]", "val": 81}
{"molecule": "Nc1cc(F)c(F)cc1C(=O)O [2-amino-4,5-difluorobenzoic acid]", "val": 182}
{"molecule": "CCOC(=O)c1ccc(-n2c(C)cc(C=O)c2C)cc1 [OSM-S-46]", "val": 113}
{"molecule": "CC(C)(C)[Si](C)(C)Oc1cccc(B(O)O)c1 [3-(tert-butyldimethylsiloxy)benzeneboronic acid]", "val": 89}
{"molecule": "Oc1ccc2ccccc2c1 [2-naphthol]", "val": 122}
{"molecule": "[O-][n+]1ccccc1S [2-mercaptopyridine n-oxide]", "val": 71}
{"molecule": "Cc1cc(Cl)ccc1Cl [2,5-dichlorotoluene]", "val": 5}
{"molecule": "COc1ccc(Cl)cc1N [5-chloro-o-anisidine]", "val": 83}
{"molecule": "Cc1c(Cl)cccc1[N+](=O)[O-] [2-chloro-6-nitrotoluene]", "val": 36}
{"molecule": "CC(C)(C)OC(=O)N[C@H](Cc1ccccc1)C(=O)O [N-boc-D-phenylalanine]", "val": 87}
{"molecule": "Nc1cc(Br)ccc1C(O)c1ccccc1 (configuration not stated) [(2-amino-4-bromophenyl)(phenyl)methanol]", "val": 113}
{"molecule": "O=C(O)c1ccccc1Br [2-bromobenzoic acid]", "val": 148}
{"molecule": "CCCCN1CCCCC1C(=O)Nc1c(C)cccc1C (configuration not stated) [Bupivacaine]", "val": 108}
{"molecule": "O=C(Oc1ccccc1)c1ccccc1 [phenyl benzoate]", "val": 69}
{"molecule": "N#Cc1c(F)c(F)c(F)c(C#N)c1F [2,4,5,6-Tetrafluoroisophthalonitrile]", "val": 79}
{"molecule": "Oc1ccc2[nH]ccc2c1 [5-hydroxyindole]", "val": 109}
{"molecule": "COC(=O)c1ccc(B(O)O)cc1 [4-(methoxycarbonyl)benzeneboronic acid]", "val": 223}
{"molecule": "C=CC(=O)O [acrylic_acid]", "val": 13}
{"molecule": "O=C(O)c1cccnc1 [Nicotinic acid]", "val": 237}
{"molecule": "FC(F)(F)c1ccccc1 [(Trifluoromethyl)benzene]", "val": -27}
{"molecule": "CN(C)CCC(O)(c1ccccc1)c1ccccc1Cl (configuration not stated) [chlophedianol]", "val": 120}
{"molecule": "O=C(O)C(F)(F)C(F)(F)C(F)(F)C(F)(F)C(F)(F)C(F)(F)C(F)(F)F [Pentadecafluorooctanoic acid]", "val": 55.5}
